Test system: U-937
Test: Cytotoxicity against human U937 cells assessed as cell death after 72 hrs by MTT assay
Type: functional
For each of the molecules below, state its CTD50.

Retrieve CTD50 on U-937; query COc1c(C(C)C)oc2cc3oc(=O)ccc3cc12 [PEUCEDANIN]
58 µM

Provide CTD50, recorded with U-937, of CC(C)C1(n2cc(-c3cc([N+](=O)[O-])ccc3O)nn2)Oc2c(cc3ccc(=O)oc3c2CN2CCN(C)CC2)C1=O (centres undefined)
17 µM

State measured CTD50 of the molecule CC(C)C1(n2cc(CNC(=O)c3ccc(N)cc3O)nn2)Oc2cc3oc(=O)ccc3cc2C1=O (centres undefined) with U-937.
24 µM

Using U-937 as the test system, report measured CTD50 of CC(C)C1(n2cc(-c3cc([N+](=O)[O-])ccc3O)nn2)Oc2cc3oc(=O)ccc3cc2C1=O (centres undefined) .
20 µM

Tell me its CTD50 on U-937: CC(C)C1(n2cc(-c3ccc4c(c3)OCCO4)nn2)Oc2c(cc3ccc(=O)oc3c2CN2CCN(C)CC2)C1=O (centres undefined)
10 µM

GET CTD50 where system = U-937 and item = CC(C)C1(N=[N+]=[N-])Oc2c(cc3ccc(=O)oc3c2CN2CCN(C)CC2)C1=O (centres undefined)
45 µM

Please report CTD50 with U-937 for item CC(C)C1(n2cc(CNC(=O)c3cc(O)c(O)c(O)c3)nn2)Oc2cc3oc(=O)ccc3cc2C1=O (centres undefined) .
20 µM

Find the measured CTD50 of COc1cc(-c2cn(C3(C(C)C)Oc4cc5oc(=O)ccc5cc4C3=O)nn2)ccc1OCc1ccccc1 (centres undefined) with U-937 as test system.
28 µM

Fill: CTD50 (U-937) for this molecule CC(C)C1(n2cc(CNC(=O)c3cc(O)cc(O)c3)nn2)Oc2cc3oc(=O)ccc3cc2C1=O (centres undefined)
23 µM

Look up and report measured CTD50 (U-937) for the following molecule: COc1ccc(-c2cn(C3(C(C)C)Oc4cc5oc(=O)ccc5cc4C3=O)nn2)c(OC)c1OC (centres undefined)
45 µM

Provide measured CTD50 on U-937 for CC(C)C1(n2cc(-c3ccccc3)nn2)Oc2c(cc3ccc(=O)oc3c2CN2CCN(C)CC2)C1=O (centres undefined) please.
25 µM

Tell me its CTD50 on U-937: COc1cccc2c1C(=O)c1c(O)c3c(c(O)c1C2=O)C[C@@](O)(C(=O)CO)C[C@@H]3O[C@H]1C[C@H](N)[C@H](O)[C@H](C)O1 [DOXORUBICIN]
0.2 µM

Give reported CTD50 for CC(C)C1(n2cc(-c3ccc4c(c3)OCCO4)nn2)Oc2cc3oc(=O)ccc3cc2C1=O (centres undefined) (U-937)
8 µM

Tell me CTD50 of CC(C)C1(N=[N+]=[N-])Oc2cc3oc(=O)ccc3cc2C1=O (centres undefined) when tested on U-937.
53 µM

Provide CTD50, recorded with U-937, of COc1cc(C(=O)NCc2cn(C3(C(C)C)Oc4cc5oc(=O)ccc5cc4C3=O)nn2)ccc1O (centres undefined)
8 µM

State, for U-937, measured CTD50 of the molecule listed here: COc1ccc(/C=C/C(=O)NCc2cn(C3(C(C)C)Oc4c(cc5ccc(=O)oc5c4CN4CCN(C)CC4)C3=O)nn2)c(OC)c1 (centres undefined)
16 µM

State recorded CTD50 with U-937, entry COc1cc(OC)cc(C(=O)NCc2cn(C3(C(C)C)Oc4cc5oc(=O)ccc5cc4C3=O)nn2)c1 (centres undefined) , no comment.
45 µM

Answer with CTD50 of CC(C)C1(n2cc(-c3ccccc3)nn2)Oc2cc3oc(=O)ccc3cc2C1=O (centres undefined) measured for U-937.
31 µM

Give the observed CTD50 of COc1ccc(/C=C/C(=O)NCc2cn(C3(C(C)C)Oc4cc5oc(=O)ccc5cc4C3=O)nn2)c(OC)c1 (centres undefined) for U-937.
25 µM

The reported measurements were obtained from ChEMBL document CHEMBL3596170.
